measurement-notes: Toxicity in brine shrimp
Format: organism-based
experimental-conditions: artemia, in vivo

compound	LC50
CCCCCCCCCCCC[C@@H](O)[C@H]1CC[C@H]([C@@H](O)CC[C@H](O)CCCCCCC[C@@H](O)CC2=C[C@H](C)OC2=O)O1 [ASITROCIN]	0.063 µg/mL
